These data points were gathered from ChEMBL document CHEMBL1134609.

Exercise: state measured pIC50 for each of the sequences provided.
- System: L1210/2
- Test Name: Cytotoxicity in cisplatin-resistant L1210/2 cell lines
- Type: functional, cell-based, Mus musculus
Convention used: pIC50 is expressed as -log10 of the molar concentration.

Determine its reported pIC50: `CISPLATIN`
5.34

Determine its reported pIC50: `TRANSPLATIN`
4.66
